Tested on: HeLa cells
measurementDescription: Measurement of the cell cycle inhibition in HeLa cells
Assay type: cell-based
measurementSetup: HeLa B cells, 20 h incubation with compound; FACS ratio G0/G1 to G2/M vs DMSO; concentration at which 50% of cells are in cell cycle arrest
Each entry below carries its reported pIC50.
Please keep in mind that pIC50 is minus log10 of the molar concentration; only the number is needed.

Consider the worked cases shown below.
compound	assayedSystem	pIC50
CC(C)=NOc1nc(Cl)c(-c2c(F)cc(F)cc2F)c(N[C@@H](C)C(F)(F)F)n1	HeLa cells	7.64
CC(CO)Nc1nc(-n2cc(Br)cn2)nc(Cl)c1-c1c(F)cc(F)cc1F (centres unmarked)	HeLa cells	7.35
C[C@H](Nc1nc(-n2cc(C#N)c(N)n2)nc(Cl)c1-c1c(F)cccc1Cl)C(F)(F)F	HeLa cells	7.41
CC1CCN(c2nc(C(N)=O)nc(Cl)c2-c2c(F)cccc2F)CC1	HeLa cells	7.28
C[C@H](Nc1nc(-n2ccc(-c3ccccc3)n2)nc(Cl)c1-c1c(F)cc(F)cc1F)C(F)(F)F	HeLa cells	7.39
O=C1CCCN1c1nc(Cl)c(-c2c(F)cc(F)cc2F)c(NCC(F)(F)F)n1	HeLa cells	7.41
CC1CCN(c2nc(-n3ccnn3)nc(Cl)c2-c2c(F)cccc2Cl)CC1	HeLa cells	8.00

Next item in the queue.
Consider the compound shown here: CC1CCCN1c1nc(C(N)=NO)nc(Cl)c1-c1ccc(F)cc1Cl (centres unmarked) What is its recorded pIC50? 7.25

====

System: HeLa cells
measurementDescription: Measurement of the cell cycle inhibition in HeLa cells
Format: cell-based
measurementSetup: HeLa B cells, 20 h incubation with compound; FACS ratio G0/G1 to G2/M vs DMSO; concentration at which 50% of cells are in cell cycle arrest
recordedMetric: IC50 (nM)
Field: numeric (nM). Do not append units.

As a guide, the following entries are already answered.
molecule	measureUnit	IC50
CC(C)Nc1nc(-n2cc(Br)cn2)nc(Cl)c1-c1c(F)cc(F)cc1F	nM	45
Cc1nc(C)n(-c2nc(Cl)c(-c3c(F)cc(F)cc3F)c(N3CCCC3C)n2)n1 (centres unmarked)	nM	35

What value of measured IC50 is listed for Fc1cc(F)c(-c2c(Cl)nc(-n3cccn3)nc2N2CC=CCC2)c(F)c1 ? 38

Please give the result for Cc1ccn(-c2nc(Cl)c(-c3c(F)cc(F)cc3F)c(N[C@H](C)C(C)C)n2)n1 too. 26

====

Test system: HeLa cells
measurementDescription: Measurement of the cell cycle inhibition in HeLa cells
Assay type: cell-based
measurementSetup: HeLa B cells, 20 h incubation with compound; FACS ratio G0/G1 to G2/M vs DMSO; concentration at which 50% of cells are in cell cycle arrest
Sorting guide: entries reporting IC50 beneath 20 nM go in the true pile, the rest go in the false pile.

Here are 2 compounds together with their reported answers.
compound	cat
CC(C)Nc1nc(-n2ccc(C(C)C)n2)nc(Cl)c1-c1c(F)cc(F)cc1F	false
CON=C(N)c1nc(Cl)c(-c2ccc(F)cc2Cl)c(N[C@@H](C)C(F)(F)F)n1	false

Bench note: check whether CC(C)[C@H](C)Nc1nc(-c2nccs2)nc(Cl)c1-c1c(F)cccc1Cl shows IC50 below 20 nM false

Now give it for C[C@H](Nc1nc(-n2nccc2[N+](=O)[O-])nc(Cl)c1-c1c(F)cc(F)cc1F)C(F)(F)F too. false

Could you do the same for CCCNc1nc(-n2cccn2)nc(Cl)c1-c1ccc(C)cc1F , please? false

Follow-up item: CON=C(N)c1nc(Cl)c(-c2c(F)cccc2F)c(N[C@@H](C)C(C)C)n1 false

Would you kindly repeat that for CC(C)[C@H](C)Nc1nc(-n2ccnn2)nc(Cl)c1-c1c(F)cc(F)cc1F ? false

====

Test system: HeLa cells
measurementDescription: Measurement of the cell cycle inhibition in HeLa cells
Type: cell-based
measurementSetup: HeLa B cells, 20 h incubation with compound; FACS ratio G0/G1 to G2/M vs DMSO; concentration at which 50% of cells are in cell cycle arrest
Procedure: Measurement of the Cell Cycle Inhibition in HeLa Cells—Test Procedure: […] The supernatant is removed and the cells lysed with 0.5 ml RNase Buffer (10 mM NaCitrate, 0.1% Nonidet NP40, 50 μg/ml RNase, 10 μg/ml Propidium iodide) per well. […] Samples are measured in a FACS machine (Beckton Dickinson) at the following settings: […] The ratio of cells in G0/G1-phase to G2/M phase is calculated and compared to the value for the controls (DMSO) only. […]
Heads up, the class ranges for IC50 are low group = under 20 nM, middle group = from 20 nM up to 30 nM, high group = 30 nM and over

compound	assayedSystem	cat
C=CCN(CC=C)c1nc(-n2ccc(N)n2)nc(Cl)c1-c1ccc(F)cc1Cl [Example 135]	HeLa cells	low group

# bin label for COc1cc(F)c(-c2c(Cl)nc(C(N)=NO)nc2N2CCC(C)CC2)c(F)c1 [Example 190] middle group

Let us now turn to CCC(C)Nc1nc(-c2csc(C)n2)nc(Cl)c1-c1c(F)cc(F)cc1F (stereo not shown) [Example 71] middle group

Input CC1CCN(c2nc(-n3ccnn3)nc(Cl)c2-c2ccc(F)cc2Cl)CC1 [Example 119] high group

Please answer likewise for CCC(C)Nc1nc(-n2cccn2)nc(Cl)c1-c1c(C)cccc1F (stereo not shown) [Example 109] middle group

Next up: COc1cc(F)c(-c2c(Cl)nc(C(N)=NO)nc2N[C@@H](C)C(C)C)c(F)c1 [Example 191] low group

How about this compound: Cc1nc(-n2cccn2)nc(N[C@@H](C)C(F)(F)F)c1-c1c(F)cc(F)cc1F [Example 156] low group

Continue with CON=C(N)c1nc(Cl)c(-c2c(F)cccc2F)c(N[C@@H](C)C(F)(F)F)n1 [Example 213] high group

And the next one, Cc1nn(-c2nc(Cl)c(-c3c(F)cc(F)cc3F)c(N[C@@H](C)C(F)(F)F)n2)c(C)c1Cl [Example 3] ? high group

Now consider COc1cc(F)c(-c2c(Cl)nc(-c3ccccn3)nc2NC(C)C)c(F)c1 [Example 62] and answer again. middle group

Moving on to CC1CCN(c2nc(-n3cnc(N)n3)nc(Cl)c2-c2c(F)cc(F)cc2F)CC1 [Example 94] middle group

Also, C[C@H](Nc1nc(-c2cnccn2)nc(Cl)c1-c1c(F)cc(F)cc1F)C(F)(F)F [Example 27] please. low group

Another compound to check: CC(=O)NC(=O)c1nc(Cl)c(-c2c(F)cccc2F)c(N2CCC(C)CC2)n1 [Example 184] high group

And then Cc1nc(-n2ccnn2)nc(N2CCC(C)CC2)c1-c1c(F)cc(F)cc1F [Example 90] , what is it? middle group

// next record Cc1nc(C)n(-c2nc(Cl)c(-c3c(F)cc(F)cc3F)c(N3CC=CCC3)n2)n1 [Example 59] high group

Entry to check: CON=C(N)c1nc(Cl)c(-c2ccc(OC)cc2Cl)c(N[C@@H](C)C(F)(F)F)n1 [Example 216] middle group

====

# IC50 per entry
Tested on: HeLa cells
measurementDescription: Measurement of the cell cycle inhibition in HeLa cells
Format: cell-based
measurementSetup: HeLa B cells, 20 h incubation with compound; FACS ratio G0/G1 to G2/M vs DMSO; concentration at which 50% of cells are in cell cycle arrest
Report the figure in nM without appending any unit label.

Form field: reported IC50 of Fc1cc(F)c(-c2c(Cl)nc(-n3ccnn3)nc2N2CCCCC2)c(F)c1 11

Also CC1CCCCN1c1nc(-n2cccn2)nc(Cl)c1-c1c(F)cccc1F (centres unmarked) , if possible. 38

What do you get for C[C@H](Nc1nc(C(N)=S)nc(Cl)c1-c1c(F)cccc1Cl)C(F)(F)F ? 41

Same again, this time with Cc1ccn(-c2nc(Cl)c(-c3c(F)cccc3Cl)c(NC(C)C)n2)n1 39

Another molecule: CCC(C)Nc1nc(-c2ccccn2)nc(Cl)c1-c1c(F)cc(OC)cc1F (centres unmarked) 22

====

System: HeLa cells
measurementDescription: Measurement of the cell cycle inhibition in HeLa cells
Assay type: cell-based
measurementSetup: HeLa B cells, 20 h incubation with compound; FACS ratio G0/G1 to G2/M vs DMSO; concentration at which 50% of cells are in cell cycle arrest
recordedMetric: pIC50
Kindly note that pIC50 refers to -log10 of the concentration in mol/L and answer with the value alone.

The examples below pair each entry with its known result.
compound	pIC50
C[C@H](Nc1nc(-n2cccn2)nc(Cl)c1-c1c(F)cc(F)cc1F)C(F)(F)F	8.32
COc1cc(F)c(-c2c(Cl)nc(-n3cccn3)nc2N2CCC(C)CC2)c(F)c1	7.89
CCNc1nc(-n2cccn2)nc(Cl)c1-c1c(F)cc(F)cc1F	7.32
CCC(C)Nc1nc(-n2cncn2)nc(Cl)c1-c1c(F)cccc1F (centres unmarked)	7.31
CC1CCCN(c2nc(-n3cccn3)nc(Cl)c2-c2c(F)cc(F)cc2F)C1 (centres unmarked)	7.72
CNC(=O)c1nc(Cl)c(-c2c(F)cc(F)cc2F)c(N[C@@H](C)C(F)(F)F)n1	7.38
CC(C)C(C)Nc1nc(-c2ccccn2)nc(Cl)c1-c1c(F)cccc1F (centres unmarked) [Example 82]	7.52

In the following, a different compound is considered.
# get_value(readout='pIC50', item= COc1cc(F)c(-c2c(Cl)nc(C(N)=O)nc2N[C@@H](C)C(C)C)c(F)c1 ) 7.48

Recorded values, source patent US20080146593A1.
